test system: H1N1 virus, Sensitive strain (676); assay: Plaque reduction assay in MDCK cells, H1N1 sensitive strain; assay type: cell-based; settings: Influenza A virus, Tamiflu
readout-type: EC50

CCOC(=O)C1=C[C@@H](OC(CC)CC)[C@H](NC(C)=O)[C@@H](N)C1 ... 4.5 nM
